# MEASUREMENT NOTES: qHTS Assay for inhibitors of the human cytomegalovirus (HCMV); note: % is set by controls: 0 for no effect and ±100 for the full control effect
# ASSAY CONTEXT: HFF cells, HCMV-luciferase reporter, 72 h; at 57.5 µM
Out of some 410,000 compounds screened, about 18,000 (4.4%) were called active. Another 7% or so got no clear call; they are omitted. Cut-off read from the data, not from the text of the source: active = activity change below about -60%; inconclusive = no clear call, values can overlap the other calls; inactive = above about -39%. Only a selection was taken, and actives are over-represented in it overall.
Can you answer with just one of these options? 1 (yes) = active, 0 (no) = inactive

| COMPOUND | CATEGORY |
| --- | --- |
| Cc1cccn2c(=O)c3cc(C(=O)NCCN4CCOCC4)c(=N)n(Cc4cccnc4)c3nc12 | 1 (yes) |

Request: Lab log entry: COc1ccc(CCn2c(=N)c(C(=O)NCc3ccco3)cc3c(=O)n4cccc(C)c4nc32)cc1 — outcome as called in the assay?
Result: 1 (yes)

Request: Query: recorded result category for CCOc1ccc(CN2CCN(Cc3ccon3)CC2CCO)cc1 (stereo not given) in this test
Result: 0 (no)

---

# MEASUREMENT NOTES: qHTS Assay for inhibitors of the human cytomegalovirus (HCMV); note: % is set by controls: 0 for no effect and ±100 for the full control effect
# ASSAY CONTEXT: HFF cells, HCMV-luciferase reporter, 72 h; at 57.5 µM
In all, about 410,000 compounds went through this assay and about 18,000 (4.4%) were called active. About 7% were inconclusive and are not listed. Cut-off read from the data, not from the text of the source: active = activity change below about -60%; inconclusive = no clear call, values can overlap the other calls; inactive = above about -39%. What follows is part of a selection rich in actives, with near analogues and random picks from the rest.
Form entry, call: pick from active, inactive

Solved cases (6 shown):
| COMPOUND | CATEGORY |
| --- | --- |
| O=C1/C(=C/c2ccc(F)cc2)SC(=S)N1CCCC(=O)N1CCCCC1CCO (configuration not stated) | active |
| CC(=O)c1ccc(N2CCN(S(=O)(=O)c3ccc4c(c3)CC(=O)N4C)CC2)cc1 | inactive |
| COc1cc(NC(=O)c2nc3ccccc3nc2C)cc(OC)c1OC | inactive |
| CCOC(=O)c1c(C)[nH]c(CCC(=O)NCCCN2CCN(c3cccc(Cl)c3)CC2)c1C | inactive |
| COc1ccccc1/C=C/C1=NC(=C\N(C)C)/C(=O)O1 | inactive |
| CC1CCCN(c2cc3c(cc2F)c(=O)c(S(=O)(=O)c2cccc(Cl)c2)cn3Cc2ccccc2)C1 (configuration not stated) | inactive |

Request: Status in this test for O=C(CNC(=O)COc1ccccc1)NCCc1ccccn1 ?
Result: inactive

Request: Dear all, I need the recorded test outcome for COC(=O)[C@H](CCSC)NC(=O)Nc1ccc(OC)cc1 , thank you.
Result: inactive

Request: Test call, this compound: CCS(=O)(=O)c1nc(S(=O)(=O)c2ccc(C)cc2)c(NCc2ccc(Cl)cc2)s1
Result: inactive

Request: I would be grateful if you could indicate the recorded call for COc1ccc(NS(=O)(=O)c2cc(NC(=O)CC(=O)c3ccc([N+](=O)[O-])cc3)ccc2C)cc1 .
Result: inactive

---

So I've got a bunch of compounds here, and I need their activity change, negative = inhibition values.
# MEASUREMENT NOTES: qHTS Assay for inhibitors of the human cytomegalovirus (HCMV); note: % is set by controls: 0 for no effect and ±100 for the full control effect
# ASSAY CONTEXT: HFF cells, HCMV-luciferase reporter, 72 h; at 57.5 µM; active compounds read low
Hit rate of the full screen: of about 410,000 compounds, about 18,000 (4.4%) were called active. Roughly 7% stayed inconclusive and do not appear here. The sample holds actives, similar compounds and a random draw of the others, so the mix is not that of the screen.
Answers are plain numbers, in %.

Record activity change, negative = inhibition for all entries; do not skip any.
1. Cc1cc(C)c(NC(=O)c2cc3sc(Cl)cc3n2C)c(C)c1
2. Cc1ccccc1Cn1nc(C)c(NC(=O)c2cc(-c3ccc(F)cc3)on2)c1C
3. CN1CCN(Cc2ccc(OC(F)(F)F)cc2)CC1
4. Cc1cc(C(=O)COc2ccccc2[N+](=O)[O-])c(C)n1-c1cccc(S(=O)(=O)N2CCOCC2)c1
5. CCC1(C)CC(=O)c2c(ccc3oc(C(=O)Nc4ccc(C(C)=O)cc4)c(C)c23)O1 (stereo not given)
6. O=C(COc1ccc(S(=O)(=O)N2CCCC2)cc1[N+](=O)[O-])N1CCCCC1
7. CN1C(=O)c2ccccc2Sc2ccc(NC(=O)Cc3ccc(Cl)cc3)cc21

Result:
[-0.202, -10.2, -3.19, -89.3, -8.87, -8.38, -23.7]

Below are some compounds; for each one, tell me its activity change, negative = inhibition.
1. CCc1ccc2c(c1)NC(=O)C2(C)Cc1ccc(OC(F)(F)F)cc1 (stereo not given)
2. Cc1cc(S(=O)(=O)N2CCOCC2)ccc1OCC(=O)N1CCOCC1
3. CC(C)c1ccc(NC(=O)Cn2nnc(C(=O)NCCc3ccccc3)c2N)cc1

Result:
[-75.3, -17.6, 7.46]

Numbers sourced from PubChem BioAssay AID1259415.
